Origin of measurements: patent US20260263413A1

assay: in vivo; details: Sprague-Dawley, rat, 1.3 mg/kg, DHM Bioavailability (Fabs)
recordedMetric: bioavailability (%)
Just the number in %, nothing appended.

Per the records, this compound ( O=C1c2c(O)cc(O)cc2O[C@H](c2cc(O)c(O)c(O)c2)[C@H]1O [DHM, dihydromyricetin] ) has bioavailability equal to 34.1

---

assay: in vivo; settings: Sprague-Dawley, rat, po, 1.3 mg/kg, Tmax
recordedMetric: Tmax (h)
Just the number in h, nothing appended.

Per the records, this molecule ( O=C1c2c(O)cc(O)cc2O[C@H](c2cc(O)c(O)c(O)c2)[C@H]1O [DHM, dihydromyricetin] ) has Tmax equal to 4.7
